Values were extracted from paper PMC5540273.

%Inh for assorted molecules
Test system: ERK1;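 also: KINOMEscan kinase panel screen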
Construct: gene MAPK3
Settings: concentration: 1 μM,replicates: in singlicate; n = 1
Write the answer as a number in %, unit excluded.

# input %Inh for Cc1n[nH]c2ccc(-c3cc(OC[C@@H](N)Cc4ccccc4)cnc3-c3ccoc3)cc12.O=C(O)C(F)(F)F.O=C(O)C(F)(F)F [GSK507358] ?
# output 79

# input Sample `C[C@H]1Oc2cc(cnc2N)-c2c(nn(C)c2C#N)CN(C)C(=O)c2ccc(F)cc21` — what was its %Inh?
# output 11

# input What value of measured %Inh is listed for O=C(NCCNc1ccnc(NCc2ccc(F)cc2)n1)c1cc2ccccc2s1 [GSK1379944] ?
# output 95.4

# input Suppose we examine the molecule CCN(CC)CCOc1ccc(Nc2ncc3cc(-c4c(Cl)cccc4Cl)c(=O)n(C)c3n2)cc1 [SB-601273] ; what %Inh value has been reported?
# output 30

# input Look at this molecule and give its reported %Inh. Cl.Cl.NC[C@H](CC1CCCCC1)NC(=O)c1cc(Br)c(-c2ccnc3[nH]ccc23)s1 [GSK1581427]
# output 1

# input Field request: %Inh | item: COc1ccc(C[C@@H](CN)NC(=O)c2cc(Br)c(-c3ccnc4[nH]ccc34)s2)cc1.Cl.Cl [GSK1389063]
# output 12

# input Find the recorded %Inh belonging to `CNC(=O)c1ccccc1Sc1ccc2c(/C=C/c3ccccn3)n[nH]c2c1` and report it.
# output 16

# input Quick one: %Inh of CC(C)Nc1cc(-c2ccc3c(N)n[nH]c3c2)nc(N)n1 [GSK2221681] ?
# output 0

# input Requested field: %Inh. Item: Cl.Oc1cc(-c2nc(-c3ccccc3)[nH]c2-c2ccncc2)ccc1Cl [SB-386023]
# output 0

# input %Inh lookup needed for Cl.Cl.Nc1nc(-c2ccc3c(N)n[nH]c3c2)cc(N2CCCC(NC(=O)c3ccccc3)C2)n1 (stereo not drawn) [GSK2286775] , thanks.
# output 0

# input Need %Inh of CN(C)CCOc1ccc(-c2cc(-c3c[nH]nc3-c3ccccn3)ccn2)cc1 [GW835314] , thanks.
# output 2

# input // %Inh lookup, key: `C[C@@H](Oc1cc(-c2cnn(C3CCNCC3)c2)cnc1N)c1c(Cl)ccc(F)c1Cl`
# output 0
